Here's a batch of compounds along with measured IC50 for UniProt Q9UHL4.

CC(C)(C)NCC(=O)N1C[C@@H](F)C[C@H]1C(=O)c1nnc(C2CCCCC2)o1    < 0.39 µM

Answer with the recorded IC50 for the compound listed here: CC(C)(C)NCC(=O)N1CCC[C@H]1C(=O)c1nnc(C(C)(C)C)o1 > 10 µM

Answer with the recorded IC50 for the compound listed here: CC(C)(C)NCC(=O)N1CCC[C@H]1C(=O)c1nnc(C2(C)CCCCC2)o1 8.66 µM

Answer with the recorded IC50 for the compound listed here: CCC(C)(C)c1nnc(C(=O)[C@@H]2C[C@H](F)CN2C(=O)CNC(C)(C)C)o1 97.2 µM

Answer with the recorded IC50 for the compound listed here: CC(C)(C)NCC(=O)N1CCC[C@H]1C(=O)c1noc(-c2ccc(F)cc2)n1 < 0.39 µM

Where do these numbers come from? They come from ChEMBL document CHEMBL1149548.
